- TARGET_OR_TEST_SYSTEM: kappa opioid receptor (Homo sapiens)
- Sequence (P41145 whole entry): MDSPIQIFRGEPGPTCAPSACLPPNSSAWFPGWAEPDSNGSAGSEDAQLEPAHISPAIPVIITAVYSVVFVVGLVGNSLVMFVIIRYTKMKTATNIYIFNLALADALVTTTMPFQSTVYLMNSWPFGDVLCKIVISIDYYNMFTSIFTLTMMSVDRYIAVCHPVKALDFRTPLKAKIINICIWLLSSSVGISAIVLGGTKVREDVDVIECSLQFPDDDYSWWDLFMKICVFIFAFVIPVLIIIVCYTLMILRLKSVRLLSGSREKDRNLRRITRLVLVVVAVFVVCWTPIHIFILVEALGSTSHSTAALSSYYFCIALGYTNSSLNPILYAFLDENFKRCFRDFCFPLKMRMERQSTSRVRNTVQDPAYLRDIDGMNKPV
- PROCEDURE_TEXT: Radioligand binding assay, [3H]U69593, membranes of CHO cells transfected with human kappa opioid receptor
- ASSAY_SETUP: Compounds of Formula (II), CHO cell membranes, read-out: Receptor Binding Ki (nM) κ
READOUT: Ki

> print(dat)
                                   compound          result
1  CC(C)[C@H]1CC[C@@H](N2CCC(n3cc(CN4CC[C@@H](O)C4)c4ccccc43)CC2)CC1 [Compound 66]       > 5000 nM
2  CC(C)[C@H]1CC[C@@H](N2CCC(n3cc(CN4CCC(N)CC4)c4ccccc43)CC2)CC1 [Compound 69]  150 to 5000 nM
3  CCOC(=O)NCCc1cn(C2CCN([C@H]3CC[C@@H](C(C)C)CC3)CC2)c2ccccc12 [Compound 94]       > 5000 nM

---

Measured Ki of individual entries
- TARGET_OR_TEST_SYSTEM: mu opioid receptor (Homo sapiens, UniProt P35372)
- Sequence (P35372 whole entry): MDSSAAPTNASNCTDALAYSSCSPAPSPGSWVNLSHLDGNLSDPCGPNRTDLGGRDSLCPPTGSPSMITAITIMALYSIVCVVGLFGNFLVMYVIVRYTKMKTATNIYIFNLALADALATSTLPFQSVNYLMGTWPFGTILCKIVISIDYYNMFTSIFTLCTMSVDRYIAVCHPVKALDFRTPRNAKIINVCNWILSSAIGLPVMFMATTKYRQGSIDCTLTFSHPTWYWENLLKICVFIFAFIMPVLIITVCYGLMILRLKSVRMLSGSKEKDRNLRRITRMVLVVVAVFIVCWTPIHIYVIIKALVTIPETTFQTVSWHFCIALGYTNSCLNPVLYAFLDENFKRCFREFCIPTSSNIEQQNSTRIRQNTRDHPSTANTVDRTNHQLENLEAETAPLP
- PROCEDURE_TEXT: Radioligand binding assay, [3H]DAMGO, membranes of CHO cells transfected with human mu opioid receptor
- ASSAY_SETUP: Compounds of Formula (II), CHO cell membranes, read-out: Receptor Binding Ki (nM) μ
READOUT: Ki

> print(dat)
                                   molecule          result
1  CC(C)[C@H]1CC[C@@H](N2CCC(n3cc(CN(C)C)c4ccccc43)CC2)CC1  150 to 5000 nM
2  CC(C)[C@H]1CC[C@@H](N2CCC(n3cc(CN4CC(O)C4)c4ccccc43)CC2)CC1       > 5000 nM
3  CC(C)[C@H]1CC[C@@H](N2CCC(n3cc(CN4CCC(O)CC4)c4ccccc43)CC2)CC1       > 5000 nM
4  CC(C)[C@H]1CC[C@@H](N2CCC(n3cc(CNC(=O)C(N)CCCNC(=N)N)c4ccccc43)CC2)CC1 (stereo partly shown)  150 to 5000 nM

---

- TARGET_OR_TEST_SYSTEM: mu opioid receptor (Homo sapiens)
- PROCEDURE_TEXT: Radioligand binding assay, [3H]DAMGO, membranes of CHO cells transfected with human mu opioid receptor
- ASSAY_SETUP: Compounds of Formula (IV), CHO cell membranes, read-out: Receptor Binding Ki (nM) μ
READOUT: Ki

> print(dat)
                                   molecule          result
1  CC(C)[C@H]1CC[C@@H](N2CCC3(CC2)C(=O)N(CC(N)=O)Cc2cc(-c4ccccc4)ccc23)CC1  150 to 5000 nM

Attribution: patent USRE49825E1
